Every entry's value here was drawn from patent US11377442B2.

# Tested on: Renilla
# assay.procedure: Renilla signal in NR2F6 agonist screening, cmpd/DMSO
# Assay type: cell-based
# conditions.used: Renilla, F4; 1% FBS; 40 uM; read-out: Renilla, F4, 1% FBS, cmpd/DMSO (mean)
quantity.name: fold induction at 40 µM

INSERT INTO assay_data (compound, number) VALUES
  ('COc1ccc(CCN[C@H]2CS(=O)(=O)C[C@@H]2S(=O)(=O)c2ccc(Cl)cc2)cc1OC [Compound D129]', 1.5),
  ('CC(C)CN[C@H]1CS(=O)(=O)C[C@@H]1S(=O)(=O)c1ccc(Cl)cc1 [Compound D120]', 0.6),
  ('COCCCN[C@H]1CS(=O)(=O)C[C@@H]1S(=O)(=O)c1ccc(Cl)cc1 [Compound D126]', 1.8),
  ('CC(C)CCN[C@H]1CS(=O)(=O)C[C@@H]1S(=O)(=O)c1cccs1 [Compound D110]', 1.5),
  ('O=S1(=O)C[C@H](NC2CCCCC2)[C@@H](S(=O)(=O)c2ccccc2)C1 [Compound D111]', 1.7),
  ('Cc1cccc(CN[C@H]2CS(=O)(=O)C[C@@H]2S(=O)(=O)c2ccc(Cl)cc2)c1 [Compound D127]', 1.5),
  ('O=S1(=O)C[C@H](N2CCCCC2)[C@@H](S(=O)(=O)c2ccc(Cl)cc2)C1 [Compound D123]', 0.1),
  ('CCCCN(C)[C@H]1CS(=O)(=O)C[C@@H]1S(=O)(=O)c1ccc(Cl)cc1 [Compound D132]', 1.7),
  ('O=S1(=O)C[C@H](NCc2ccco2)[C@@H](S(=O)(=O)c2cccs2)C1 [Compound D135]', 1.7),
  ('CCCCN[C@H]1CS(=O)(=O)C[C@@H]1S(=O)(=O)c1ccc(Cl)cc1 [Compound D119]', 0.4),
  ('COCCN[C@H]1CS(=O)(=O)C[C@@H]1S(=O)(=O)c1ccc(Cl)cc1 [Compound D136]', 2.4),
  ('O=S1(=O)C[C@H](NC2CCCCCC2)[C@@H](S(=O)(=O)c2ccc(Cl)cc2)C1 [Compound D130]', 1.9),
  ('O=S1(=O)C[C@H](NC2CCCCC2)[C@@H](S(=O)(=O)c2ccc(Cl)cc2)C1 [Compound D124]', 1.6),
  ('O=S1(=O)C[C@H](NCC2CCCO2)[C@@H](S(=O)(=O)c2cccs2)C1 (stereo partly drawn) [Compound D134]', 2.1),
  ('CC(C)OCCCN[C@H]1CS(=O)(=O)C[C@@H]1S(=O)(=O)c1ccc(Cl)cc1 [Compound D138]', 2.9),
  ('CC1CCN([C@H]2CS(=O)(=O)C[C@@H]2S(=O)(=O)c2cccs2)CC1 [Compound D106]', 1.1),
  ('CCC(C)N[C@H]1CS(=O)(=O)C[C@@H]1S(=O)(=O)c1ccc(C)cc1 (stereo partly drawn) [Compound D113]', 1.8),
  ('CC(C)CCN[C@H]1CS(=O)(=O)C[C@@H]1S(=O)(=O)c1ccc(Cl)cc1 [Compound D131]', 2),
  ('Cc1cc(S(=O)(=O)[C@H]2CS(=O)(=O)C[C@@H]2NCC2CCCO2)ccc1F (stereo partly drawn) [Compound D115]', 1.5),
  ('O=S1(=O)C[C@H](NCCc2cccs2)[C@@H](S(=O)(=O)c2ccc(Cl)cc2)C1 [Compound D128]', 1.7),
  ('CCC(C)N[C@H]1CS(=O)(=O)C[C@@H]1S(=O)(=O)c1ccc(Cl)cc1 (stereo partly drawn) [Compound D121]', 1.3),
  ('CC(=O)Nc1ccc(S(=O)(=O)[C@H]2CS(=O)(=O)C[C@@H]2NC2CC2)cc1 [Compound D133]', 1.1),
  ('O=S1(=O)C[C@H](NCc2ccncc2)[C@@H](S(=O)(=O)c2cccs2)C1 [Compound D108]', 1.4),
  ('C[C@@H]1C[C@H](C)CN([C@H]2CS(=O)(=O)C[C@@H]2S(=O)(=O)c2cccs2)C1 [Compound D109]', 1.1),
  ('O=S1(=O)C[C@H](NC2CCCC2)[C@@H](S(=O)(=O)c2ccc(F)cc2)C1 [Compound D114]', 1.8),
  ('O=S1(=O)C[C@H](N2CCCCC2)[C@@H](S(=O)(=O)c2cccs2)C1 [Compound D105]', 1.6),
  ('CC(=O)N1CCN([C@H]2CS(=O)(=O)C[C@@H]2S(=O)(=O)c2ccc(F)c(C)c2)CC1 [Compound D116]', 1.2),
  ('C[C@@H]1C[C@H](C)CN([C@H]2CS(=O)(=O)C[C@@H]2S(=O)(=O)c2ccccc2)C1 [Compound D112]', 2),
  ('O=S1(=O)C[C@H](N2CCCC2)[C@@H](S(=O)(=O)c2cccs2)C1 [Compound D104]', 1),
  ('O=S1(=O)C[C@H](NCCCc2ccccc2)[C@@H](S(=O)(=O)c2ccc(Cl)cc2)C1 [Compound D137]', 3.5),
  ('CCCN[C@H]1CS(=O)(=O)C[C@@H]1S(=O)(=O)c1ccc(Cl)cc1 [Compound D117]', 0.8),
  ('COCCN[C@H]1CS(=O)(=O)C[C@@H]1S(=O)(=O)c1cccs1 [Compound D107]', 1.8),
  ('CC(C)N[C@H]1CS(=O)(=O)C[C@@H]1S(=O)(=O)c1ccc(Cl)cc1 [Compound D118]', 2.3);
